assayed_target: Human STING (Homo sapiens, UniProt Q86WV6, G230A/H232R/R293Q/R71H)
Construct: host or cells: THP1-Dual cells (human monocytic reporter line)
Sequence (Q86WV6 whole entry R71H/G230A/H232R/R293Q): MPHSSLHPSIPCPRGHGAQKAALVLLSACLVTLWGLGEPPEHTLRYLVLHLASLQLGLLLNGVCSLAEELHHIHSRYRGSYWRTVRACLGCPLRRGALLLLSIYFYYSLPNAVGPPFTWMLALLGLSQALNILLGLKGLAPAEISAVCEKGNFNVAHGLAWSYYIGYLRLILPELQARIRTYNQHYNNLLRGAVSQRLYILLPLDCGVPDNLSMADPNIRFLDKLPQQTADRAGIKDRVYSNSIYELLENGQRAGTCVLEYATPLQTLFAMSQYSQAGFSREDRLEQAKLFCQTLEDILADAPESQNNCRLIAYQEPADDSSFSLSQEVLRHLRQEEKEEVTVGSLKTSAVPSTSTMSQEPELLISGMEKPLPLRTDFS
method: EC50 in THP1-Dual cells, IRF3 reporter (QUANTI-Luc)
Assay type: cell-based
condition_summary: THP1 cell line, 24 h
property_name: EC50 (nM)

I. [BH3-][P+]1(O)OCC2OC(n3cnc4c(N)ncnc43)C(OP(=O)(O)OCC3OC(n4cnc5c(N)ncnc54)C(F)C3O1)C2F (single isomer, unassigned) [Compound K1]
II. BP1(=O)OC[C@H]2O[C@@H](n3cnc4c(=O)[nH]c(N)nc43)[C@H](F)[C@@H]2OP(=O)(O)OCC2O[C@@H](n3cnc4c(N)ncnc43)[C@H](F)[C@@H]2O1 (stereo partly drawn) [Compound G1]
III. BP1(=O)OCC2O[C@@H](n3cnc4c(N)ncnc43)[C@H](F)[C@@H]2OP(=O)(S)OC[C@H]2O[C@@H](n3cnc4c(=O)[nH]c(N)nc43)[C@H](F)[C@@H]2O1 (single isomer, unassigned) [Compound C1]
Please list the entries, largest EC50 first. In your reply, arrange the labels in the requested order.
III, I, II

Data credit: patent US11773132B2
